Data credit: ChEMBL document CHEMBL4340554

experiment: Inhibition of […] BRD4 bromodomain 1 incubated for 60 mins by TR-FRET assay
Decide using IC50 alone. Strictly below 200 nM: YES. Equal to or above 200 nM: NO.

Reference set, count: 4
>>> answer_label("Cc1nnc2n1-c1cnc(Nc3ccc([N+](=O)[O-])cc3)nc1N(C1CCCC1)C2")
"NO"
>>> answer_label("Cc1sc2c(c1C)C(c1ccc(Cl)cc1)=N[C@@H](CC(=O)OC(C)(C)C)c1nnc(C)n1-2")
"YES"
>>> answer_label("Cc1nnc2n1-c1cnc(Nc3ccccc3)nc1N(C1CCCC1)C2")
"NO"
>>> answer_label("Cc1nnc2n1-c1cnc(Nc3cccc(Cl)c3)nc1N(C1CCCC1)C2")
"NO"

Turning now to a further record.
(Q) State whether 200 nM exceeds IC50 recorded for Cc1nnc2n1-c1cnc(Nc3ccccc3[N+](=O)[O-])nc1N(C1CCCC1)C2 .
(A) YES

----------
pIC50 by entry:
system: MV4-11; assay: Antiproliferative activity against human MV4-11 cells incubated for 72 hrs by CCK-8 assay; format: functional, cell-based; conditions: MV4-11, 72 h
Remember the convention: pIC50 equals -log10 of concentration in molar.

(Q) Observed pIC50 on MV4-11 for COc1cccc(Nc2ncc3c(n2)N(C2CCCC2)Cc2nnc(C)n2-3)c1 , please.
(A) 5.17

(Q) Observed pIC50 on MV4-11 for Cc1nnc2n1-c1cnc(Nc3ccc([N+](=O)[O-])cc3)nc1N(C1CCCC1)C2 , please.
(A) 4.67

(Q) Observed pIC50 on MV4-11 for COc1ccc(Nc2ncc3c(n2)N(C2CCCC2)Cc2nnc(C)n2-3)cc1 , please.
(A) 5.32

(Q) Observed pIC50 on MV4-11 for Cc1nnc2n1-c1cnc(Nc3ccccc3)nc1N(C1CCCC1)C2 , please.
(A) 5.26

(Q) Observed pIC50 on MV4-11 for COc1ccc(Nc2ncc3c(n2)N(C2CCCC2)Cc2nnc(C)n2-3)cc1OC , please.
(A) 5.17

(Q) Observed pIC50 on MV4-11 for COc1ccccc1Nc1ncc2c(n1)N(C1CCCC1)Cc1nnc(C)n1-2 , please.
(A) 5.38

(Q) Observed pIC50 on MV4-11 for Cc1nnc2n1-c1cnc(Nc3ccc(N)cc3)nc1N(C1CCCC1)C2 , please.
(A) 5.82

----------
assay: Inhibition of […] BRD4 bromodomain 1 incubated for 60 mins by TR-FRET assay
readout: log10 IC50 (log10 of the value in µM)
Transform log10 | Measure IC50 | Unit µM

>>> measured_value("Cc1nnc2n1-c1cnc(Nc3ccc(S(C)(=O)=O)cc3)nc1N(C1CCCC1)C2")
-1.05
>>> measured_value("Cc1ccc(Nc2ncc3c(n2)N(C2CCCC2)Cc2nnc(C)n2-3)cc1")
-0.42
>>> measured_value("Cc1nnc2n1-c1cnc(Nc3ccc(F)cc3)nc1N(C1CCCC1)C2")
0.11
>>> measured_value("COc1ccccc1Nc1ncc2c(n1)N(C1CCCC1)Cc1nnc(C)n1-2")
-0.80
>>> measured_value("COc1cccc(Nc2ncc3c(n2)N(C2CCCC2)Cc2nnc(C)n2-3)c1")
-0.74

(Q) Data request, read-out log10 IC50, for Cc1ccccc1Nc1ncc2c(n1)N(C1CCCC1)Cc1nnc(C)n1-2
(A) -0.39

(Q) Data request, read-out log10 IC50, for COc1ccc(Nc2ncc3c(n2)N(C2CCCC2)Cc2nnc(C)n2-3)cc1
(A) -0.80

(Q) Data request, read-out log10 IC50, for CCCCc1ccc(Nc2ncc3c(n2)N(C2CCCC2)Cc2nnc(C)n2-3)cc1
(A) 0.16

(Q) Data request, read-out log10 IC50, for Cc1nnc2n1-c1cnc(Nc3ccc(C(C)C)cc3)nc1N(C1CCCC1)C2
(A) -0.07
